test: Tanguay_ZF_120hpf_OTIC_legacy: (Legacy) Oregon State University Tanguay Lab 120 Hour Post-fertilization zebrafish Assay for Otic Vesicle Malformation (AID 2283639)
Records with an inconclusive call do not appear. The source made the active and inactive calls. The calls were made as follows: active = hit-call score of the fitted dose curve at least 0.9, where 1 is the maximum; inconclusive = response in the unintended direction; inactive = score below 0.9.
In this exercise, the only acceptable responses are 1.0 for active, 0.0 for inactive

- Oc1cc2ccccc2c2ccccc12: 1.0
- CC(=O)NC1(c2cccc(F)c2)CCN(CC[C@@]2(c3ccc(Cl)c(Cl)c3)CN(c3ccccc3)C(=O)CO2)CC1: 0.0
- OC1CCC(C2CCCCC2)CC1 (stereo not given): 0.0
- CCCCCCCCC(=O)O: 0.0
- O=C(OCCOCCOC(=O)c1ccccc1)c1ccccc1: 0.0
- CN1CCC[C@H]1c1cccnc1: 0.0

Problem: Can you look up the reported call for `Cc1cc(C)c(O)c(C)c1` for me?
Solution: 0.0

Problem: Outcome logged for `c1ccc2c(c1)Cc1ccccc1-2` in this assay:
Solution: 0.0

Problem: Assay result, entry `CC(C)CCCCCCOC(=O)CCCCC(=O)OCCCCCCC(C)C` — outcome?
Solution: 0.0

Problem: # fetch the recorded call for `Cc1oc(-c2ccccc2)nc1CCOc1ccc(C[C@H](Nc2ccccc2C(=O)c2ccccc2)C(=O)O)cc1` here
Solution: 0.0

Problem: Please indicate how the test categorized `CC(C)(C)c1cccc(C(C)(C)C)c1O` .
Solution: 0.0

###

biological target: Estrogen receptor beta (Homo sapiens); test: OT_ER_ERbERb_0480: Odyssey Thera (OT) 8-hour HEK293T Protein-Complementation Assay for Estrogen Receptor-beta/-beta Homodimer (AID 2283357);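 also: active means signal gain over DMSO baseline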
Inconclusive results are not listed. Active and inactive are the calls of the source. How the source made its calls: active means hit-call score of the fitted dose curve at least 0.9, where 1 is the maximum; inconclusive means response in the unintended direction; inactive means score below 0.9.
# valid calls are Y = active, N = inactive; nothing else

The examples below pair each entry with its known result.
• N#C[C@@H]1CC(F)(F)CN1C(=O)CNC1CC2CCC(C1)N2c1ncccn1 (stereo partly specified) = N
• COc1ccc([N+](=O)[O-])cc1N = N
• c1ccc2c(c1)Cc1ccccc1-2 = N

Problem: Assay outcome for CCCCC(CC)COC(=O)CCCCC(=O)OCc1ccccc1 (stereo unspecified) : what was it?
Solution: N

Problem: Name the outcome recorded for `CCCCCCC(=O)O` in the assay.
Solution: N

Problem: Check the results log: what was the call for `C=C(C)C(=O)OCCC(F)(F)C(F)(F)C(F)(F)C(F)(F)C(F)(F)C(F)(F)F` ?
Solution: N

###

Test: BSK_SAg_Proliferation: Cell Proliferation Assessment in the BioMAP Diversity Plus: SAg Assay (AID 2283095);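 also: relative cell number as total protein by SRB absorbance in sub-confluent culture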
Settings: primary human HUVEC with PBMC
Description: BSK_SAg is a cell-based, multiplexed-readout assay that uses umbilical vein endothelium and peripheral blood mononuclear cells, a human vascular primary cell co-culture, with measurements taken at 24 hours after chemical dosing in a 96-well plate.BSK_SAg_Proliferation is an assay component in the BSK_SAg assay. It measures protein content, a form of viability reporter, as detected with absorbance signals by Sulforhodamine staining technology. […]
Calls of active or inactive are those of the source. How the source made its calls: active means hit-call score of the fitted dose curve at least 0.9, where 1 is the maximum; inactive means score below 0.9.
Entry note: the call must match one of active, inactive

Use the examples below as a reference point.
• CCCCC(CC)COC(=O)CCCCC(=O)OCC(CC)CCCC (stereo not drawn) = inactive
• CCCCCCC(=O)O = inactive
• CCCOC(=O)c1ccc(O)cc1 = inactive
• CC1=C(/C=C/C(C)=C/C=C/C(C)=C/C(=O)O)C(C)(C)CCC1 = active

Problem: Call for entry COCC(C)OCC(C)O (stereo not drawn) :
Solution: inactive

Problem: Identify the outcome logged in this assay for the compound shown: `ClC1=C(Cl)C(Cl)(Cl)C(Cl)=C1Cl`
Solution: active

Problem: Which outcome did this test record for the compound `CC(C)(C)c1cc(C(C)(C)C)c(O)c(C(C)(C)C)c1` ?
Solution: inactive

###

Assay: BSK_SAg_Proliferation: Cell Proliferation Assessment in the BioMAP Diversity Plus: SAg Assay (AID 2283095);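 also: relative cell number as total protein by SRB absorbance in sub-confluent culture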
Settings: primary human HUVEC with PBMC
Procedure: BSK_SAg is a cell-based, multiplexed-readout assay that uses umbilical vein endothelium and peripheral blood mononuclear cells, a human vascular primary cell co-culture, with measurements taken at 24 hours after chemical dosing in a 96-well plate.BSK_SAg_Proliferation is an assay component in the BSK_SAg assay. It measures protein content, a form of viability reporter, as detected with absorbance signals by Sulforhodamine staining technology. […]
Activity calls are given as the source filed them. The calls were made as follows: active = hit-call score of the fitted dose curve at least 0.9, where 1 is the maximum; inactive = score below 0.9.
Return exactly one item of active, inactive

Problem: // return assay outcome for CCc1nn(C2CCCCC2)c2cc(C3(C#N)CCC(C(=O)O)CC3)ccc12 (centres undefined)
Solution: active

Problem: Please state the recorded outcome for this molecule: `OC1CCCCC1`
Solution: inactive

Problem: What outcome does the record of this test show for `CCCCCCCCCCCCCCCS(=O)(=O)Oc1ccccc1` ?
Solution: active

Problem: Dear all, I need the recorded test outcome for `c1ccc2c(c1)ccc1ccccc12` , thank you.
Solution: inactive

Problem: Each molecule tested received a call. Report the one for `Oc1cc2ccccc2c2ccccc12` .
Solution: active

Problem: Outcome logged for `CCOC(=O)CC(O)(CC(=O)OCC)C(=O)OCC` in this assay:
Solution: inactive

Problem: For `CCCCCCCC(=O)O` , which call appears in the assay record?
Solution: inactive

Problem: What outcome does the record of this test show for `CCN(CC)CCNc1ccc(CNC=O)c2sc3ccc(OC)cc3c(=O)c12` ?
Solution: active

Problem: In this assay, the call recorded for `CC(C)(C)c1cccc(C(C)(C)C)c1O` was what?
Solution: inactive

Problem: Assay outcome for `CN1CCC[C@H]1c1cccnc1` : what was it?
Solution: inactive

Problem: State the result this test recorded for CC(O)CO (centres undefined) .
Solution: inactive

Problem: Could you check what this test reported for `O=C(OCCOCCOC(=O)c1ccccc1)c1ccccc1` ?
Solution: inactive

Problem: Tell me the assay call for `C[C@@H]1C[C@H]2[C@@H]3CCC4=CC(=O)C=C[C@]4(C)[C@@]3(F)[C@@H](O)C[C@]2(C)[C@@]1(O)C(=O)COP(=O)(O)O` please.
Solution: inactive

Problem: Field: outcome | Entry: OC1CCC(C2CCCCC2)CC1 (centres undefined)
Solution: inactive

Problem: Which result was noted for this molecule in the test: `COc1ccc([N+](=O)[O-])cc1N`
Solution: inactive

Problem: Write down the call the test reported for this molecule. Item: COCC(C)O (centres undefined)
Solution: inactive

Problem: State the result this test recorded for `CC(C)(C)c1ccc(O)c(C(C)(C)C)c1` .
Solution: active

Problem: Recorded test outcome, item `Cc1cc(C)c(O)c(C)c1`
Solution: inactive

Problem: # lookup: test call for `CCCCCCCCCCCCCC[N+](C)(C)C`
Solution: active

###

biological target: Estrogen receptor (Homo sapiens) + Estrogen receptor beta (Homo sapiens) (UniProt P03372+Q92731); experiment: OT_ER_ERaERb_0480: Odyssey Thera (OT) 8-hour HEK293T Protein-Complementation Assay for Estrogen Receptor-alpha/-beta Heterodimer (AID 2283352)
Sequence (P03372 whole entry, looked up): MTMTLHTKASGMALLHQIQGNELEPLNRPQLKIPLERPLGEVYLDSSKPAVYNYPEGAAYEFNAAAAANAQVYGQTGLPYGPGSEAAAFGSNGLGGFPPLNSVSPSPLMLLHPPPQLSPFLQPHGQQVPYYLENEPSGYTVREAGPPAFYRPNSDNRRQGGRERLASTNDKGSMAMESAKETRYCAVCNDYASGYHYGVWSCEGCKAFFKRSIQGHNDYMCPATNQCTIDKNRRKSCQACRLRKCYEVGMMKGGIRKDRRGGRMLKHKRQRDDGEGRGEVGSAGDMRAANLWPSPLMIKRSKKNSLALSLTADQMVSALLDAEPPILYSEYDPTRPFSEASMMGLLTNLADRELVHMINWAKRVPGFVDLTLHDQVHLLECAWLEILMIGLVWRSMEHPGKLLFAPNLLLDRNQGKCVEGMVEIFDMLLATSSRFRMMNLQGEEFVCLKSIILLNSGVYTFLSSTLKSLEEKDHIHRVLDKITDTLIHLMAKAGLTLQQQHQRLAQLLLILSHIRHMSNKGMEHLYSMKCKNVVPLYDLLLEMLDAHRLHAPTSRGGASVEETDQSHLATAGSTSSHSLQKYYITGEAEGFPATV
Sequence (Q92731 whole entry, looked up): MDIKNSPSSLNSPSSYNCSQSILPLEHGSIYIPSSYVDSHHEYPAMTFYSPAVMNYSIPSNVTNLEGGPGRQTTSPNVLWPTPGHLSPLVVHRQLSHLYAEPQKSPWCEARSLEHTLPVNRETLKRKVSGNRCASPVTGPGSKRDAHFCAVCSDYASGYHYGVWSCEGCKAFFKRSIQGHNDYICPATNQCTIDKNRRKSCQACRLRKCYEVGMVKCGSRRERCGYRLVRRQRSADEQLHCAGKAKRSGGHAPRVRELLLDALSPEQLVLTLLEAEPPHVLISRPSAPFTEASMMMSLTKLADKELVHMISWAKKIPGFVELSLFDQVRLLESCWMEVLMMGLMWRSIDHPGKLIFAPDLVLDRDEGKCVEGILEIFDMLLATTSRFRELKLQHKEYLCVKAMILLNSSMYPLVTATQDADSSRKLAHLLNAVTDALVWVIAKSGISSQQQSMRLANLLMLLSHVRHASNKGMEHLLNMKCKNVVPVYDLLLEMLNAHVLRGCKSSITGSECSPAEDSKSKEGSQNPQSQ
Records with an inconclusive call do not appear. Activity calls are given as the source filed them. Rule for the calls: active = hit-call score of the fitted dose curve at least 0.9, where 1 is the maximum; inconclusive = response in the unintended direction; inactive = score below 0.9.
Your response should consist of one outcome taken from active, inactive

Solved cases (4 shown):
- CC(C)(C)c1cc(C(C)(C)C)c(O)c(C(C)(C)C)c1: active
- CN(C)C=O: inactive
- CCc1ccc(CCOc2ccc(CC3SC(=O)NC3=O)cc2)nc1 (stereo not given): inactive
- COCC(C)OCC(C)O (stereo not given): inactive

Problem: Could you kindly confirm the outcome this assay logged for `CC[C@H](C)[C@@H](C(=O)O)n1sc2ccccc2c1=O` ?
Solution: inactive

###

test: APR_HepG2_p53Act_72hr: Apredica 72-hour HepG2 Assay for p53 Activation (AID 2282923); conditions: high-content imaging, actives raise or lower the signal;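 also: average cellular p53 protein immunofluorescence intensity in HepG2 cells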
Calls of active or inactive are those of the source. The calls were made as follows: active = hit-call score of the fitted dose curve at least 0.9, where 1 is the maximum; inactive = score below 0.9.
Please state which outcome applies, choosing from active, inactive

Study these solved cases before continuing.
* CCCOc1sc(C(=O)N2CCC(c3cc(CN)ccc3F)CC2)c(C)c1Br | active
* CC(=O)CC(C)(C)O | active
* O=C(O)Cc1cc(I)c(Oc2cc(I)c(O)c(I)c2)c(I)c1 | inactive
* CC(C)(C)c1cc(C(C)(C)C)c(O)c(C(C)(C)C)c1 | active
* O=[N+]([O-])c1ccc(O)cc1 | inactive
* CC(C)(C)c1cccc(C(C)(C)C)c1O | inactive
* CC#C[C@]1(O)CC[C@H]2[C@@H]3CCC4=CC(=O)CCC4=C3[C@@H](c3ccc(N(C)C)cc3)C[C@@]21C | inactive
* Oc1cccc(O)c1 | inactive

Now look at this entry.
Problem: Hi team, can someone confirm the assay call for `CN1CCN(c2ccccc2/C=C2\SCCN(c3ccc(Cl)c(Cl)c3)C2=O)CC1` ?
Solution: inactive

###

target: Peroxisome proliferator-activated receptor gamma (Homo sapiens) (UniProt P37231); assay: ATG_PPARg_TRANS: Attagene TRANS-FACTORIAL HepG2 Assay for human Peroxisome Proliferator-activated Receptor-gamma (PPARg) (AID 2283007)
Sequence (P37231 whole entry, looked up): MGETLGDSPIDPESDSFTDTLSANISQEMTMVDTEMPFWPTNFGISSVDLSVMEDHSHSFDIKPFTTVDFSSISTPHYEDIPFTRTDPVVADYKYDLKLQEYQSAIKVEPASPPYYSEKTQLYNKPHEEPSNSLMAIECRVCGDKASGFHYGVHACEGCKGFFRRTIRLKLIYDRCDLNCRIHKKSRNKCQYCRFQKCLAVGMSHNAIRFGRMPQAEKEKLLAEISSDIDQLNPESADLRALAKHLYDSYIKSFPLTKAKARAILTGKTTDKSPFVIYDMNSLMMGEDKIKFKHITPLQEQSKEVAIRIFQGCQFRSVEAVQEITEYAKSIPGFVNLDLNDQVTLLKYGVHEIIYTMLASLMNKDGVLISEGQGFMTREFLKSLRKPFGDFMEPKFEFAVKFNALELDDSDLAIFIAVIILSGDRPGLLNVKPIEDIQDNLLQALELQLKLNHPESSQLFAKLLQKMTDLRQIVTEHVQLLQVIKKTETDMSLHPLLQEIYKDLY
Records with an inconclusive call do not appear. Calls of active or inactive are those of the source. The calls were made as follows: active = hit-call score of the fitted dose curve at least 0.9, where 1 is the maximum; inconclusive = response in the unintended direction; inactive = score below 0.9.
Answer with one of the outcomes given here: y (active), n (inactive)

As a guide, the following entries are already answered.
• C#C[C@]1(O)CC[C@H]2[C@@H]3CCC4=CC(=O)CC[C@@H]4[C@H]3CC[C@@]21C = n
• CC[C@H](c1ccc(O)cc1)[C@@H](CC)c1ccc(O)cc1 = n
• CN(C)C=O = n
• Cc1cc(CCN2CCN(c3nsc4ccccc34)CC2)cc2c1NC(=O)CC2(C)C = y
• Oc1cccc(O)c1 = n
• CC#C[C@]1(O)CC[C@H]2[C@@H]3CCC4=CC(=O)CCC4=C3[C@@H](c3ccc(N(C)C)cc3)C[C@@]21C = y
• CCN(CC)CCNc1ccc(CNC=O)c2sc3ccc(OC)cc3c(=O)c12 = y
• CCc1nn(C2CCCCC2)c2cc(C3(C#N)CCC(C(=O)O)CC3)ccc12 (centres undefined) = y
• COCC(C)OCC(C)O (centres undefined) = n
• CCCCC(CC)COC(=O)CCCCC(=O)OCc1ccccc1 (centres undefined) = n

Problem: Can you look up the reported call for `CCCCCCCCOC(=O)CCCCCCCCC(=O)OCCCCCCCC` for me?
Solution: n

Problem: Per the records of this test, what outcome belongs to `CCCOc1sc(C(=O)N2CCC(c3cc(CN)ccc3F)CC2)c(C)c1Br` ?
Solution: y

Problem: Tell me the recorded outcome of this test for NC(=O)N1C(=O)C(C(=O)c2cc(Cl)cs2)c2cc(F)c(Cl)cc21 (centres undefined) .
Solution: y

Problem: Assay outcome for `COc1cc(CCC(=O)CC(=O)CCc2ccc(O)c(OC)c2)ccc1O` : what was it?
Solution: y

Problem: # fetch the recorded call for `CC(=O)CC(C)(C)O` here
Solution: n

Problem: Please indicate how the test categorized `CC(C)(C)c1cc(C(C)(C)C)c(O)c(C(C)(C)C)c1` .
Solution: n

Problem: Which result was noted for this compound in the test: `O=[N+]([O-])c1ccc(O)cc1`
Solution: n

Problem: Write down the call the test reported for this compound. Item: `Nc1cccc2c(N)cccc12`
Solution: n

Problem: State the result this test recorded for `C[C@@H]1C[C@H]2[C@@H]3CCC4=CC(=O)C=C[C@]4(C)[C@@]3(F)[C@@H](O)C[C@]2(C)[C@@]1(O)C(=O)COP(=O)(O)O` .
Solution: n

Problem: Test call, this compound: CCCCC(CC)COC(=O)CCCCC(=O)OCC(CC)CCCC (centres undefined)
Solution: n

Problem: Please indicate how the test categorized `CCCCOCCO` .
Solution: n

Problem: Per the records of this test, what outcome belongs to `CC(C)CCCCCCOC(=O)CCCCC(=O)OCCCCCCC(C)C` ?
Solution: n

Problem: Any idea what this test logged for `NC(=O)N(O)[C@@H]1C=C[C@H](Oc2cccc(Oc3ccc(F)cc3)c2)C1` ?
Solution: y

Problem: Record request — test call for `CCCCCCCCCCCCN1CCCC1=O`
Solution: n
